# System: HCMV UL50-UL53 nuclear egress complex (human cytomegalovirus)
# procedureSummary: inhibitors of HCMV UL50-UL53 interaction, biochemical, HTRF (AID 1918969)
# studyConditions: normalized percent inhibition, active compounds read high, concentration not given here
In all, about 190,000 compounds went through this assay and about 280 (0.15%) were called active. For the sample, actives were picked, then their nearest neighbours and some compounds at random.
Tag: Y if measured inhibition is not below -30%, N if it is.

Evaluate `CCOC(=O)c1noc2ncnc(N(CC)c3ccccc3)c12` : inhibition at minimum -30%? Y

Evaluate `COCC(=O)Nc1nc2nc(-c3ccccc3)cc(=O)n2[nH]1` : inhibition at minimum -30%? Y

Evaluate `COc1cccc(NC(=O)c2c(-c3cccnc3)noc2C)c1` : inhibition at minimum -30%? Y

Evaluate `Cc1ccc(C(=O)NCC(=O)NC2CC2)cc1` : inhibition at minimum -30%? Y

Evaluate `Cc1ccc2nsnc2c1S(=O)(=O)NCCc1c(C)[nH]c2ccccc12` : inhibition at minimum -30%? N

----------
# Test system: HCMV UL50-UL53 nuclear egress complex (human cytomegalovirus)
# procedureSummary: inhibitors of HCMV UL50-UL53 interaction, biochemical, HTRF (AID 1918969)
# studyConditions: normalized percent inhibition, active compounds read high, concentration not given here
Among all 190,000 compounds or so, about 280 (0.15%) were called active. This excerpt belongs to a sample that is enriched for actives.
readoutName: inhibition (%)
Output spec: scalar in %, unitless text.

May I ask what inhibition has been recorded for `Nc1nc(Nc2ccccc2)sc1C(=O)c1ccc(Br)cc1` ? -4.3

May I ask what inhibition has been recorded for `CN(C)S(=O)(=O)c1ccc2nc(NC(=O)CN3C(=O)c4ccccc4C3=O)sc2c1` ? -36.1

May I ask what inhibition has been recorded for `O=C(NN1C(=O)/C(=C/c2ccc(-c3ccc([N+](=O)[O-])cc3)o2)SC1=S)c1ccccc1[N+](=O)[O-]` ? -1.8

May I ask what inhibition has been recorded for NCC(c1ccccc1)N1CCCC1 (stereo not drawn) ? -3.2

May I ask what inhibition has been recorded for `CC(C)N(C(=O)CNc1cc(Cl)ccc1Cl)c1ccccc1` ? -6.5

May I ask what inhibition has been recorded for `Cc1ccc(Sc2c(C)[nH]n(-c3ccccc3)c2=O)cc1` ? -26

May I ask what inhibition has been recorded for `Cc1n[nH]c(C)c1Cc1ccc(N)cc1` ? -0.1

May I ask what inhibition has been recorded for `CCN1C(=O)c2cccc3c(S(=O)(=O)Nc4cccc(C)n4)ccc1c23` ? -9

May I ask what inhibition has been recorded for C=C(C)C1Cc2c(C)nn(S(=O)(=O)c3ccc(C)cc3)c2C1 (stereo not drawn) ? -7.3

May I ask what inhibition has been recorded for `Cn1c(=O)n(C)c2cc(N3CCOCC3)c(NS(=O)(=O)c3ccc4c(c3)CCCC4)cc21` ? -20

May I ask what inhibition has been recorded for `CC(C)CSc1nccn2nc(-c3ccc(Cl)cc3)cc12` ? 15.5

May I ask what inhibition has been recorded for `COc1ccccc1-c1nnc(SCC(=O)Nc2cccc3nsnc23)n1-c1ccccc1` ? -31.2

May I ask what inhibition has been recorded for CCOC(=O)c1c(N)sc2c1CCC(Br)C2=O (stereo not drawn) ? -67.7

May I ask what inhibition has been recorded for `Cn1c(CNC(=O)OC(C)(C)C)nnc1SCc1c(F)cccc1Cl` ? -17

May I ask what inhibition has been recorded for `O=C(NCCO)c1ccc(C(=O)NCCO)cc1` ? -13.4

May I ask what inhibition has been recorded for CC1(C)CC(=O)C2=C(C1)N(Cc1ccco1)C(=O)C2(NC(=O)c1cccs1)C(F)(F)F (stereo not drawn) ? -5.4

May I ask what inhibition has been recorded for COc1ccc(C2CC2/C(C)=N/O)cc1 (stereo not drawn) ? -8.3

May I ask what inhibition has been recorded for `CCc1nc(-c2cc(S(=O)(=O)N3CCC(C(=O)Nc4cccc(OC)c4)CC3)c(C)s2)no1` ? -7.1

May I ask what inhibition has been recorded for `O=C(CN1C(=O)c2ccccc2C1=O)Nc1ccc2c(c1)CCC(=O)N2` ? -46

May I ask what inhibition has been recorded for `Cc1noc(C)c1C(=O)c1c(C)[nH]n(-c2ccccc2)c1=O` ? -25.3

May I ask what inhibition has been recorded for `COc1ccc(F)cc1-c1cc(N2CCN(S(=O)(=O)c3ccc(F)c(Cl)c3)CC2)ncn1` ? -27.5

May I ask what inhibition has been recorded for CCC(C)NS(=O)(=O)c1cc(C(=O)OC)n(C)c1C (stereo not drawn) ? -32.5

May I ask what inhibition has been recorded for `COc1ccc(C(=O)CSc2nc3nc[nH]c3c(=O)[nH]2)cc1` ? -13.4

----------
# Test system: HCMV UL50-UL53 nuclear egress complex (human cytomegalovirus)
# procedureSummary: inhibitors of HCMV UL50-UL53 interaction, biochemical, HTRF (AID 1918969)
# studyConditions: normalized percent inhibition, concentration not given here
Out of some 190,000 compounds screened, about 280 (0.15%) were called active. No stated cut-off is given here; in the data, active means inhibition above about 27% (passing the limit was not always enough); inactive means the rest. For the sample, actives were picked, then their nearest neighbours and some compounds at random.
Log the outcome using a class from active, inactive

Just curious, what result did `Fc1cccc(Cl)c1CSc1nnc(-c2c[nH]c3ccccc23)o1` get here? inactive

Just curious, what result did `CC1(C)Cc2cccc(Oc3ncnc4sccc34)c2O1` get here? inactive

Just curious, what result did `Cc1ccc(NC(=O)c2sc3ncnc(N4CCN(C)CC4)c3c2C)cc1F` get here? inactive

Just curious, what result did `O=C(COC(=O)Cc1ccc(F)cc1)Nc1ccccc1` get here? inactive

Just curious, what result did `COc1ccc(NC(=O)CN2C(=O)C(C)(C)c3ccccc32)cc1` get here? inactive

Just curious, what result did CCOC(C(=O)c1ccccc1)c1ccccc1 (stereo unspecified) get here? inactive

Just curious, what result did CCOC(=O)C(C(=O)c1ccccc1)C1(O)C(=O)c2ccccc2C1=O (stereo unspecified) get here? active

Just curious, what result did `CCCCCC#CCC#CCCCCCCCC(=O)O` get here? inactive

Just curious, what result did CCOC(=O)C1(C2(O)C(=O)c3ccccc3C2=O)CCCC1=O (stereo unspecified) get here? inactive

Just curious, what result did `Cc1ccc(-n2c(=O)c3c(n4c(SCC(N)=O)nnc24)-c2ccccc2CC32CCCCC2)cc1` get here? inactive

Just curious, what result did `O=C(NCc1cc2ccccc2s1)c1ccc(N2CCOCC2)nc1` get here? inactive

----------
# Tested on: HCMV UL50-UL53 nuclear egress complex (human cytomegalovirus)
# procedureSummary: inhibitors of HCMV UL50-UL53 interaction, biochemical, HTRF (AID 1918969)
# studyConditions: normalized percent inhibition, active compounds read high, concentration not given here
About 280 (0.15%) of roughly 190,000 compounds were called active. The full list was thinned out, with actives kept by preference.
readoutName: inhibition (%)
Output spec: scalar in %, unitless text.

May I ask what inhibition has been recorded for `Cc1c(OCC(N)=O)ccc2c3c(c(=O)oc12)CCCC3` ? 7.5

May I ask what inhibition has been recorded for `O=C(O)CCCOc1ccc(Cl)cc1` ? -22.4

May I ask what inhibition has been recorded for CCCCCCCCCCCCCCCC(=O)O[C@@H]1[C@@H](O)[C@@H](O)C([C@H](NC(=O)[C@@H]2C[C@@H](CCC)CN2C)[C@H](C)Cl)O[C@@H]1SC (some centres undefined) ? -4.7

May I ask what inhibition has been recorded for CCOc1ccc(N2C(=O)N(CC(=O)N3CCCCC3C)c3ccccc3S2(=O)=O)cc1 (centres undefined) ? -6.7
